Target: UniProtKB Q8BLA8
Sequence (Q8BLA8 whole entry): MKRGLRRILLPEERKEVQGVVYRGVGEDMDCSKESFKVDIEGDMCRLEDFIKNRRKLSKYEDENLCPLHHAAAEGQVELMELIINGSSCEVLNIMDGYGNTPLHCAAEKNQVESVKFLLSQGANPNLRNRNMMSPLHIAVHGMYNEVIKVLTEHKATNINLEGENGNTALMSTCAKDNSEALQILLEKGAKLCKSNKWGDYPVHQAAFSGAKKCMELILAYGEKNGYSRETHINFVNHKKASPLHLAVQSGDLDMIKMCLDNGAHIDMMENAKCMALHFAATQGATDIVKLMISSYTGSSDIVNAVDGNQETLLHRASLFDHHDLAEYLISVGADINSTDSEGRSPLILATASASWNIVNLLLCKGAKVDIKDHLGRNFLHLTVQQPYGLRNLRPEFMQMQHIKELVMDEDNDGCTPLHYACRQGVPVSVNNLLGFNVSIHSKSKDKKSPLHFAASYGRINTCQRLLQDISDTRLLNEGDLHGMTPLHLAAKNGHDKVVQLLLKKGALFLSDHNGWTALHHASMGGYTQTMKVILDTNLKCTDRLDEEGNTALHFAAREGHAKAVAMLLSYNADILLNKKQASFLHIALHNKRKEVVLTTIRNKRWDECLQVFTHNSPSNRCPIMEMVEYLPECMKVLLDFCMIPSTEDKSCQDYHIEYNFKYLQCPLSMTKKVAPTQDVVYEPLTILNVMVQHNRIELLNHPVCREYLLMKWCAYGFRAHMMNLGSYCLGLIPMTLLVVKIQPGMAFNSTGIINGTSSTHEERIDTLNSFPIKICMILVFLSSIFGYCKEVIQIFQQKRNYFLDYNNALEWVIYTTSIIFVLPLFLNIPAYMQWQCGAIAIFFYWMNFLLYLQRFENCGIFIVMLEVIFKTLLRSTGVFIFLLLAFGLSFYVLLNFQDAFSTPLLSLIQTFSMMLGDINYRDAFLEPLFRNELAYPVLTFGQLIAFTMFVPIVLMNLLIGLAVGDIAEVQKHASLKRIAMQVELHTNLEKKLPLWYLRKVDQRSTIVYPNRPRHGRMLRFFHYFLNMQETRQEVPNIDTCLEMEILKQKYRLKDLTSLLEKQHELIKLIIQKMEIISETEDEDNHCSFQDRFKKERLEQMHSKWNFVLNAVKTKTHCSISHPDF
Test: whole-cell patch clamp of native TRPA1 in STC-1 cells (-60 mV)
PROPERTY_MEASURED: EC50
Kindly format the answer as number then unit.

Form field, EC50 with UniProtKB Q8BLA8, item C=CCN=C=S [AITC, allyl isothiocyanate] : 29 µM

* * *

Molecular target: TRPA1 (Rattus norvegicus)
Sequence (Q6RI86 whole entry): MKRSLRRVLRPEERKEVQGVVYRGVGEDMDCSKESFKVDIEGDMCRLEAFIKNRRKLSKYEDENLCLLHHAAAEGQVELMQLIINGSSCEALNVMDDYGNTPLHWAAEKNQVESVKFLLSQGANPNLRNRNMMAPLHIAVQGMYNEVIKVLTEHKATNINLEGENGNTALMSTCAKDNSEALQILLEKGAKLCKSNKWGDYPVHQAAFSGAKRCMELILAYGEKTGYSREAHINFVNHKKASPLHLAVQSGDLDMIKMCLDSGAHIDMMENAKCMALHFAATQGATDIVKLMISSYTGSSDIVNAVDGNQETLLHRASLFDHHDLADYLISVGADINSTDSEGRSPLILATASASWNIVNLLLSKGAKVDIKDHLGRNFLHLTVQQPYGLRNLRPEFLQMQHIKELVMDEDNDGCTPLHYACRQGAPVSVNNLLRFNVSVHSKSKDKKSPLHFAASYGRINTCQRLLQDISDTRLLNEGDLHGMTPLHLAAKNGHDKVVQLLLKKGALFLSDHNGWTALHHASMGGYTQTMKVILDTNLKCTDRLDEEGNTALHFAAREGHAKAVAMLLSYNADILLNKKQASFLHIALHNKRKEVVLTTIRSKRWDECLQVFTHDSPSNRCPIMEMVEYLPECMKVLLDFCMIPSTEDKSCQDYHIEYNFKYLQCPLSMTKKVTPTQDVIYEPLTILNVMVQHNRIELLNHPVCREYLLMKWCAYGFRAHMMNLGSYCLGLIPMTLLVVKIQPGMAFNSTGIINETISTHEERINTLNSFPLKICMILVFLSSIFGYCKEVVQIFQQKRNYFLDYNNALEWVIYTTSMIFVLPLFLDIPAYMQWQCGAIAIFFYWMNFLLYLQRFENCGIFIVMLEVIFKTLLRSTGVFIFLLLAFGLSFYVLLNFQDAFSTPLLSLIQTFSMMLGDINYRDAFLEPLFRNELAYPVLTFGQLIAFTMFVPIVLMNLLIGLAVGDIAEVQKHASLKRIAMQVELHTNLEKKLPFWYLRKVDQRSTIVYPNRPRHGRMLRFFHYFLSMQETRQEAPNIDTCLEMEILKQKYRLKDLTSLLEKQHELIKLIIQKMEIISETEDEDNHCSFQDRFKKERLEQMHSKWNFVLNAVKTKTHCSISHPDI
Experiment: whole-cell patch clamp in transfected HEK293 cells (-60 mV), with NAC
PROPERTY_MEASURED: EC50

Record CC/C=C\C/C=C\C/C=C\C/C=C\C/C=C\C/C=C\CCC(=O)O [DHA, docosahexaenoic acid] has TRPA1 (Rattus norvegicus) EC50 equal to 41 µM
